Assay: probe aLefty1 binding on compound microarray – biochemical, small-molecule microarray, 635/667 nm fluorescence, primary screen (AID 1153);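 also: score merges spot fluorescence with signal-to-noise ratio from the scanned slide images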
Settings: higher = more signal
measured.metric: composite z-score
One number for each entry.

O=C(C=C(CC(O)c1cccc(Cl)c1)OCCF)OCCF (centres undefined) : -0.0694
CC(C)(C)OC(=O)CC[C@@]1(C(=O)N2CCCCC2)N=C(c2ccc(OCCCO)cc2)O[C@@H]1c1ccccc1CN=[N+]=[N-] : 0.549
CCOC(=O)C1=CC[C@@H](c2ccc(N(CC)CC)cc2)N(S(=O)(=O)c2ccc(C)cc2)[C@H]1c1ccc([N+](=O)[O-])cc1 : 0.437
CC(C)NC(=O)[C@@]1(Cc2ccccc2I)c2ccccc2C(=O)N(Cc2ccccc2C(F)(F)F)[C@H]1c1ccc(CO)cc1 : 0.243
C=CCOC(=O)[C@H]1[C@@H]2C(=O)O[C@@H](c3ccccc3)[C@@H](c3ccccc3)N2[C@@H](c2ccc(OCCOC(=O)[C@H]3C[C@H]4C(=O)N[C@@H](CCCCN(C)C)C(=O)N4[C@H]3c3ccc(O)cc3)cc2)[C@]12C(=O)Nc1ccccc12 : 1.13
COc1ccc([Si](C)(C)[C@@H]2[C@@H](CCO)O[C@]3(C(=O)N(Cc4cccc(N5C(=O)COc6ccccc65)c4)c4ccccc43)[C@H]2C)cc1 : 0.139
C=C(CCCC)/C(=C/C[C@@H](OC(=O)c1ccncc1)c1ccccc1OCCO)c1cc(C(=O)OC)ccc1OC : 0.282
COCC(=C=CC[C@@H](O)c1ccccc1OCCO)C[C@@H](O)COCc1ccccc1 : 0.455

# batch size: 4; output composite z-score per entry
1. C=CCN1C(=O)[C@@]2(O[C@@H](CCO)[C@H]([Si](C)(C)c3ccc(OC)cc3)[C@H]2C)c2cc(NC(=O)[C@H](C)O)ccc21
2. C=CC[C@]1(C(=O)N2CCOCC2)N=C(c2ccc(OCCCO)cc2)O[C@H]1c1ccccc1CN=[N+]=[N-]
3. COC(=O)C(CC#Cc1ccc2c(c1)[C@]1(C(=O)N2)[C@H](c2ccc(O)cc2)N2[C@H](c3ccccc3)[C@H](c3ccccc3)OC(=O)[C@H]2[C@@H]1C(N)=O)C(=O)OC
4. COCCOC(=O)N1C(=O)[C@@]2(c3cc(C#Cc4ccc(OC)cc4)ccc31)[C@H](c1ccc(OCCO)cc1)N1[C@H](c3ccccc3)[C@H](c3ccccc3)OC(=O)[C@H]1[C@@H]2C(N)=O

## Result
[-0.0879, 0.483, -0.216, 0.291]

# batch size: 3; output composite z-score per entry
1. CC(C)c1ccc(NN2C(C(O)c3ccccn3)C=CC3C(=O)N(c4ccccc4)C(=O)C32)cc1 (centres undefined)
2. CCN(CC)c1ccc(N2CC=CC34O[C@@H]5/C=C\CCCOC(=O)C5[C@H]3C(=O)N(CCCCCCO)[C@@H]4C2=O)cc1 (some centres undefined)
3. C[C@H]1ON(c2ccccc2)[C@@H](c2ccccc2)[C@@H]1C(=O)N1C(=O)OC[C@@H]1c1ccccc1

## Result
[0.595, 0.135, -0.0141]

# batch size: 4; output composite z-score per entry
1. COC(=O)[C@@]1(Cc2ccc(F)cc2)[C@H]2c3cc(C(=O)N4CCCC4)n(Cc4ccccc4)c3C[C@H]2CN1C(=O)c1ccccc1
2. O=C1NC(=O)C2C1C=CC(C(O)c1ccc(-c3ccccc3)s1)N2Nc1ccccn1 (centres undefined)
3. COc1cc(C(O)C2C=CC3C(=O)NC(=O)C3N2Nc2ccc(Cl)cc2Cl)cc(OC)c1OC (centres undefined)
4. COc1ccc(CCNC(=O)[C@@H]2c3ccccc3C(=O)N(Cc3ccccc3C(F)(F)F)[C@H]2c2ccc(CO)cc2)cc1

## Result
[0.216, 0.114, 0.505, -0.144]

# batch size: 3; output composite z-score per entry
1. COc1ccc([Si](C)(C)[C@@H]2[C@@H](CC(=O)N(CCO)Cc3ccccc3)O[C@]3(C(=O)N(Cc4ccc(N5CCOC5=O)cc4)c4ccccc43)[C@H]2C)cc1
2. CCN(CC)c1ccc(N2CC=CC34O[C@@H]5/C=C\CCCOC(=O)C5[C@H]3C(=O)N(CCCCCO)[C@@H]4C2=O)cc1 (some centres undefined)
3. COC(=O)[C@]1(Cc2ccccc2CN=[N+]=[N-])N=C(c2ccc(OCCCO)cc2)O[C@@H]1c1ccccc1

## Result
1: -0.0891; 2: -0.0479; 3: 0.14
